meta.source: the FLAb antibody collection (doi:10.7554/elife.23156)

B1: scFv; the commonest letter at each place (parent)
chain 1: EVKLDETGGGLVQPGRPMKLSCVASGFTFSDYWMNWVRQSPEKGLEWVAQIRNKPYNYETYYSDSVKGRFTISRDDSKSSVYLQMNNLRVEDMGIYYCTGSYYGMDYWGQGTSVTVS
chain 2: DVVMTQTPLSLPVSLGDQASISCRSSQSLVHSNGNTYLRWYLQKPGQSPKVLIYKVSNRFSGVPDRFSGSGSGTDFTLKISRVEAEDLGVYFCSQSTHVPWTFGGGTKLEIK

variants of: B1; assay: yeast surface expression (ratio to wild type); higher = more expressed; conditions: format: scFv 4-4-20, heavy + light
Quick reference: yeast surface expression of the listed items.
Could you keep your reply to the number by itself?

Below, each entry is followed by its recorded yeast surface expression result.
Item: chain 1 N35R | yeast surface expression: 0.534

Item: chain 1 T28C F29P | yeast surface expression: 0.637

Item: chain 1 D106K W108G | yeast surface expression: 0.276

Item: chain 1 M34P V37Q | yeast surface expression: 2.03

Item: chain 1 Y102M W108K | yeast surface expression: 0.392

Item: chain 1 G104V M105R G109W | yeast surface expression: 0.425

Item: chain 1 S30V | yeast surface expression: 0.901

Item: chain 1 Y32V M34D | yeast surface expression: 0.218

Item: chain 1 G100E D106Q | yeast surface expression: 0.172

Item: chain 1 W33F W36C | yeast surface expression: 0.455

Next:
Item: chain 1 S30H W33C | yeast surface expression: 0.61

Item: chain 1 Y102W Y107G | yeast surface expression: 0.493
